src = ChEMBL document CHEMBL1275301

System: Rattus norvegicus
protocolDescription: Antihypertensive activity against DOCA-salt induced hypertension in albino rat assessed as reduction in systolic blood pressure at 10 mg/kg, po after 300 mins by tail-cuff method
Assay type: functional
measurementConditions: Artery, 5 h
The reader will find reported inhibition in vivo at 10 mg/kg values listed item by item below.

>  <compound>
CC1=C(C(=O)Nc2ccc([N+](=O)[O-])cc2)C(c2cccc([N+](=O)[O-])c2)N=C(SCc2ccccc2)N1 (stereo not drawn)

>  <targetDesc>
Rattus norvegicus

>  <inhibition in vivo at 10 mg/kg (%)>
25.6

$$$$
>  <compound>
COc1ccc(C2N=C(SCc3cccc(Cl)c3)NC(C)=C2C(=O)Nc2ccc(Br)cc2)cc1 (stereo not drawn)

>  <targetDesc>
Rattus norvegicus

>  <inhibition in vivo at 10 mg/kg (%)>
39

$$$$
>  <compound>
COC(=O)C1=C(C)NC(C)=C(C(=O)OC)C1c1ccccc1[N+](=O)[O-]

>  <targetDesc>
Rattus norvegicus

>  <inhibition in vivo at 10 mg/kg (%)>
32.3

$$$$
>  <compound>
CC1=C(C(=O)Nc2ccc([N+](=O)[O-])cc2)C(c2ccc(Br)cc2)N=C(SCc2cccc(Cl)c2)N1 (stereo not drawn)

>  <targetDesc>
Rattus norvegicus

>  <inhibition in vivo at 10 mg/kg (%)>
9.2

$$$$
>  <compound>
CC1=C(C(=O)Nc2ccc([N+](=O)[O-])cc2)C(c2cccc([N+](=O)[O-])c2)N=C(SCc2ccc(Cl)cc2)N1 (stereo not drawn)

>  <targetDesc>
Rattus norvegicus

>  <inhibition in vivo at 10 mg/kg (%)>
24.1

$$$$
>  <compound>
COc1ccc(C2N=C(SCc3cccc(Cl)c3)NC(C)=C2C(=O)Nc2ccc(F)cc2)cc1OC (stereo not drawn)

>  <targetDesc>
Rattus norvegicus

>  <inhibition in vivo at 10 mg/kg (%)>
16.4

$$$$
>  <compound>
CC1=C(C(=O)Nc2ccc([N+](=O)[O-])cc2)C(c2ccc(Br)cc2)N=C(SCc2ccc(Cl)cc2)N1 (stereo not drawn)

>  <targetDesc>
Rattus norvegicus

>  <inhibition in vivo at 10 mg/kg (%)>
37.9

$$$$
>  <compound>
CC1=C(C(=O)Nc2ccc(Br)cc2)C(c2ccc(Cl)cc2Cl)N=C(SCc2ccccc2Cl)N1 (stereo not drawn)

>  <targetDesc>
Rattus norvegicus

>  <inhibition in vivo at 10 mg/kg (%)>
36.4

$$$$
